biological target: GIPC2, Q8TF65; test: holdup assay; design: key: below the threshold = too weak to quantify, mostly under pKd 3.1 to 4; details: plain residues with an end cap or a label only (N-terminal biotin on a linker: ttds)
Sequence (Q8TF65 112-203): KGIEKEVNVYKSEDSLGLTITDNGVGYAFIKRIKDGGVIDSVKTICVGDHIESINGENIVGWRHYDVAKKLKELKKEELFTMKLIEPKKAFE
parameter: pKd

# binder, recorded measurement
measured = [
    ("ERKLSSESQV [LRP4, O75096]", 4.22),
    ("STLTIFETAL [ABCC4, O15439]", "below the threshold"),
    ("IYVPEAQTRL [DLGAP4, Q9Y2H0]", "below the threshold"),
]
